Attribution: PubChem BioAssay (NCI)

test system: SW-620 colon; assay: NCI-60 one-dose screen, 48 h (100 = growth as untreated, 0 = no growth, -100 = all killed); conditions: 10 µM
Compounds without any hit were thinned out: in the full panel of roughly 83,000, 20% have a hit.
Quantity kind: growth (%)
The figure you give is taken to be in %; do not add the unit.

// solved cases for growth follow
1. COc1cc2c(cc1OCCCCCCN1CCN(CC(=O)Nc3ccc(Cl)cc3C(=O)c3ccccc3Cl)CC1)N=CC1CCCN1C2=O (stereo not given)
-83.6
2. COc1ccc(-c2nc3sc(-c4ccccc4)c(-c4ccccc4)n3c2/C=C/C(=O)c2ccccn2)cc1
91
3. Cc1cs/c(=N\NC(=O)c2cc(-c3cc4ccccc4o3)nn2-c2ccccc2)n1-c1ccccc1
93.4
4. Cc1cccc2c(NCCN(C)C)c3cccc(C(=O)NCCN(C)C)c3nc12
4.11
5. COc1ccc(-c2nc3sc(C4CC4)nn3c2/C=C2/C(=O)Nc3ccc(OC)cc32)cc1
77.7
6. Nc1cc2c(cc1Cl)-c1ccc([N+](=O)[O-])cc1/C2=N\O
38.6
7. CN(C)C=Nc1cc(Cl)ccc1Cl
103
8. COc1ccc(N2C(=O)C3c4[nH]c5ccc(OCc6ccccc6)cc5c4C4CCC(C(C)C)CC4C3C2=O)cc1 (stereo not given)
87.9

Problem: I'd like to know its growth. The compound in question is CCCCCCCCCCCCC1C/C=C\CCCC(=O)O1 (stereo not given)
Solution: 104

Problem: Would you mind doing C#Cc1ccc(-n2c(/C=C/c3ccc4ccccc4c3)nc3ncccc3c2=O)cc1 as well?
Solution: 19.2
